- Tested on: TK-10 renal
- Measurement description: NCI tumour cell line growth inhibition, 48 h
Experimental endpoint: TGI (µM)
Only the number, expressed in µM, is required.

Which value of TGI has been reported for CCN(CC)CCCC(Nc1c2ccc(Cl)cc2nc2ccc(OC)cc12)c1ccc(Cl)cc1 (stereo not given) in the records?
3.14

Request: "OCCNc1nc2ccccc2c2[nH]c3ccccc3c12"
5.16

Request: "Cc1ccc2ccc3c4ccccc4ccc3c2c1"
67.8

Request: CC1(C)CCC[C@@]2(C)C1CC[C@@]1(CO)O[C@H](C3=CC(=O)OC3O)C[C@H]12 (stereo not given in full)
34.4

Request: "Nc1nc(Cl)c2ncn(Cc3ccc(C45CC6CC(CC(C6)C4)C5)c(OCc4cc(F)c(F)cc4F)c3)c2n1"
10.3

---

- Tested on: RPMI-8226 leukemia
- Measurement description: NCI tumour cell line growth inhibition, 48 h
Experimental endpoint: TGI

Which value of TGI has been reported for "Cc1cc2nc(N3C(=O)/C(=C/Cc4ccco4)N=C3c3ccccc3)sc2cc1C" in the records?
> 100 µM

Request: "Nc1c(C(=O)O)c2ccc([N+](=O)[O-])cc2c(=O)n1-c1nc2ccccc2s1"
> 100 µM

Request: O=c1c2ccccc2nc(-c2cccc(Cl)c2)n1NC1OC(CO)C(O)C(O)C1O (centres undefined)
> 100 µM

Request: "CC(=O)Nc1cccc(C#Cc2cncnc2Nc2ccc(OCc3cccc(F)c3)c(Cl)c2)c1"
> 25 µM

Request: "COc1cccc(/C=N/[N-]C(N)=O)c1[O-].[Cu+2].[OH3+]"
> 100 µM

Request: "C=C1C(=O)O[C@@H]2C[C@@]3(C)[C@H](O)CCC(=C)[C@@H]3C[C@H]12"
13.4 µM

Request: C=CCOC(C)(C)C1=CCC(C)CC1 (centres undefined)
> 100 µM

Request: "O=C(Nc1ccc(-n2cc(-c3ccncc3)c(-c3ccc(O)c(Cl)c3)n2)cc1)Nc1cc(C(F)(F)F)cc(C(F)(F)F)c1"
9.95 µM

Request: "Cn1c(CO)ccc1-c1ccc(-c2ccc(CO)[se]2)[se]1"
12.1 µM

---

- Tested on: XF 498 CNS
- Measurement description: NCI tumour cell line growth inhibition, 48 h
Experimental endpoint: TGI (µM)
Only the number, expressed in µM, is required.

Which value of TGI has been reported for "COc1cccc(/C=N/[N-]C(N)=O)c1[O-].[Cu+2].[OH3+]" in the records?
29.4

Request: "O=[N+]([O-])c1cccnc1S(=O)(=O)c1ccccc1"
25.8

Request: CC(C)C(NCc1c2ccccc2[n+](C)c2ccccc12)C(=O)O (configuration not stated)
17.8

Request: "O=C(Nc1ccccc1C(=O)NC(=O)c1ccccc1NC(=O)c1ccccc1)c1ccccc1"
4.38

Request: "COc1ccc(/C(C=O)=C(\Cl)c2ccc(OC)c(OC)c2)cc1"
50.2

---

- Test system: OVCAR-5 ovarian
- Measurement description: NCI tumour cell line growth inhibition, 48 h
Field: TGI. Provide a value for each of the compounds that follow.
Only the number, expressed in µM, is required.

Which value of TGI has been reported for CCN(CC)CCCC(Nc1c2ccc(Cl)cc2nc2ccc(OC)cc12)c1ccc(Cl)cc1 (stereo not given) in the records?
3.36

Request: "O=C(/C=C/c1ccccc1)c1cc(CN2CCOCC2)c(O)c(CN2CCOCC2)c1"
36.2

Request: "Nc1nc(Cl)c2ncn(Cc3ccc(C45CC6CC(CC(C6)C4)C5)c(OCc4cc(F)c(F)cc4F)c3)c2n1"
33.9
